So I've got a bunch of compounds here, and I need their Drug uptake values.
- Test system: Brain
- methodDescription: Biodistribution in brain of C57BL/6 mouse bearing mouse B16-F0 cells at 0.74 to 0.92 MBq, iv after 1 hr
- Format: ADME, organism-based
- studyConditions: in vivo
Give bare numbers, in % ID/g.

Solved entries (count: 3):
CCN(CC)CCNC(=O)c1cc2c([125I])cccc2s1.Cl = 0.81
CCN(CC)CCNC(=O)c1ccc([125I])nc1.Cl.Cl = 0.64
CCN(CC)CCNC(=O)c1cc2cc([125I])ccc2o1.Cl = 1.46

Now consider the entry below.
Q. Please list Drug uptake recorded for the compound CCN(CC)CCNC(=O)c1c[nH]c2ccc([125I])cc2c1=O.Cl.Cl
A. 0.07

###

So I've got a bunch of molecules here, and I need their Drug uptake values.
- methodDescription: Biodistribution in uvea of C57BL/6 mouse bearing mouse B16-F0 cells at 0.74 to 0.92 MBq, iv after 24 hrs
- Type: ADME, organism-based, Uveal tract
- studyConditions: in vivo
One number for each entry, in % ID/g.

Solved entries (count: 3):
CCN(CC)CCNC(=O)c1cc2c([125I])cccc2s1.Cl = 11.06
CCN(CC)CCNC(=O)c1cc2cc([125I])ccc2o1.Cl = 9.95
CCN(CC)CCNC(=O)c1ccc2cncc([125I])c2n1.Cl.Cl = 10

Parameters: items (list). Returns: Drug uptake for each item.
1. CCN(CC)CCNC(=O)c1ccc([125I])nc1.Cl.Cl
2. CCN(CC)CCNC(=O)c1cn2cc([125I])ccc2n1.Cl.Cl
3. CCN(CC)CCNC(=O)c1ccc2cc([125I])ccc2n1.Cl.Cl

A.
6.07
11.54
22.27

###

- methodDescription: Biodistribution in Stomach content of C57BL/6 mouse bearing mouse B16-F0 cells at 0.74 to 0.92 MBq, iv after 6 hrs
- Assay type: ADME, organism-based
- studyConditions: in vivo
Quick rule: Drug uptake of at least 20 % ID/g means yes (1), below that means no (0).

CCN(CC)CCNC(=O)c1ccc2cc([125I])ccc2c1.Cl = no (0)
CCN(CC)CCNC(=O)c1cn2cc([125I])ccc2n1.Cl.Cl = no (0)
CCN(CC)CCNC(=O)c1cc2c([125I])cccc2s1.Cl = no (0)
CCN(CC)CCNC(=O)c1c[nH]c2ccc([125I])cc2c1=O.Cl.Cl = yes (1)
CCN(CC)CCNC(=O)c1nc2cc([125I])ccc2[nH]1.Cl.Cl = no (0)

Q. I'd appreciate it if you could say whether CCN(CC)CCNC(=O)c1cc2c([125I])cccc2cn1.Cl.Cl has Drug uptake at least equal to 20 % ID/g.
A. yes (1)

Q. I'd appreciate it if you could say whether CCN(CC)CCNC(=O)c1ccc2cncc([125I])c2n1.Cl.Cl has Drug uptake at least equal to 20 % ID/g.
A. no (0)

Q. I'd appreciate it if you could say whether CCN(CC)CCNC(=O)c1ccc2cc([125I])ccc2n1.Cl.Cl has Drug uptake at least equal to 20 % ID/g.
A. yes (1)

Q. I'd appreciate it if you could say whether CCN(CC)CCNC(=O)c1cc2cc([125I])ccc2[nH]1.Cl has Drug uptake at least equal to 20 % ID/g.
A. yes (1)

Q. I'd appreciate it if you could say whether CCN(CC)CCNC(=O)c1ccc([125I])nc1.Cl.Cl has Drug uptake at least equal to 20 % ID/g.
A. yes (1)

Q. I'd appreciate it if you could say whether CCN(CC)CCNC(=O)c1cnc2cc([125I])ccc2n1.Cl.Cl has Drug uptake at least equal to 20 % ID/g.
A. yes (1)

Q. I'd appreciate it if you could say whether CCN(CC)CCNC(=O)c1cc2cc([125I])ccc2o1.Cl has Drug uptake at least equal to 20 % ID/g.
A. no (0)

###

- methodDescription: Biodistribution in Stomach content of C57BL/6 mouse bearing mouse B16-F0 cells at 0.74 to 0.92 MBq, iv after 24 hrs
- Type: ADME, organism-based
- studyConditions: in vivo
Recorded Drug uptake determines the label; the label ranges are lower level = under 0.8 % ID/g, middle level = from 0.8 % ID/g up to 2 % ID/g, upper level = 2 % ID/g and over

Here are 8 compounds together with their reported answers.
CCN(CC)CCNC(=O)c1cc2cc([125I])ccc2o1.Cl = middle level
CCN(CC)CCNC(=O)c1ccc2cc([125I])ccc2n1.Cl.Cl = upper level
CCN(CC)CCNC(=O)c1cc2c([125I])cccc2cn1.Cl.Cl = lower level
CCN(CC)CCNC(=O)c1nc2cc([125I])ccc2[nH]1.Cl.Cl = upper level
CCN(CC)CCNC(=O)c1cc2cc([125I])ccc2[nH]1.Cl = upper level
CCN(CC)CCNC(=O)c1ccc([125I])nc1.Cl.Cl = middle level
CCN(CC)CCNC(=O)c1ccc2cc([125I])ccc2c1.Cl = upper level
CCN(CC)CCNC(=O)c1ccc2cncc([125I])c2n1.Cl.Cl = lower level

Q. # bin lookup: classify CCN(CC)CCNC(=O)c1c[nH]c2ccc([125I])cc2c1=O.Cl.Cl by its Drug uptake
A. lower level

###

- Tested on: Kidney
- methodDescription: Biodistribution in kidney of C57BL/6 mouse bearing mouse B16-F0 cells at 0.74 to 0.92 MBq, iv after 1 hr
- Assay type: ADME, organism-based
- studyConditions: in vivo
hey, just use Criterion met if measured Drug uptake is less than 6 % ID/g, otherwise Criterion not met

Here are 5 compounds together with their reported answers.
CCN(CC)CCNC(=O)c1ccc2cc([125I])ccc2c1.Cl = Criterion not met
CCN(CC)CCNC(=O)c1ccc2cncc([125I])c2n1.Cl.Cl = Criterion met
CCN(CC)CCNC(=O)c1cc2cc([125I])ccc2[nH]1.Cl = Criterion met
CCN(CC)CCNC(=O)c1cc2c([125I])cccc2cn1.Cl.Cl = Criterion met
CCN(CC)CCNC(=O)c1cc2c([125I])cccc2s1.Cl = Criterion met

Q. A record lists CCN(CC)CCNC(=O)c1cn2cc([125I])ccc2n1.Cl.Cl . Is its Drug uptake below 6 % ID/g?
A. Criterion met

Q. A record lists CCN(CC)CCNC(=O)c1cc2cc([125I])ccc2o1.Cl . Is its Drug uptake below 6 % ID/g?
A. Criterion not met

Q. A record lists CCN(CC)CCNC(=O)c1nc2cc([125I])ccc2[nH]1.Cl.Cl . Is its Drug uptake below 6 % ID/g?
A. Criterion not met

Q. A record lists CCN(CC)CCNC(=O)c1c[nH]c2ccc([125I])cc2c1=O.Cl.Cl . Is its Drug uptake below 6 % ID/g?
A. Criterion met

Q. A record lists CCN(CC)CCNC(=O)c1ccc2cc([125I])ccc2n1.Cl.Cl . Is its Drug uptake below 6 % ID/g?
A. Criterion not met

Q. A record lists CCN(CC)CCNC(=O)c1cnc2cc([125I])ccc2n1.Cl.Cl . Is its Drug uptake below 6 % ID/g?
A. Criterion not met

###

- methodDescription: Biodistribution in intestinal content of C57BL/6 mouse bearing mouse B16-F0 cells at 0.74 to 0.92 MBq, iv after 24 hrs
- Format: ADME, organism-based
- studyConditions: in vivo
Quick rule: Drug uptake of at least 2 % ID/g means class 1, below that means class 0.

CCN(CC)CCNC(=O)c1ccc2cc([125I])ccc2n1.Cl.Cl = class 0

Q. I'd appreciate it if you could say whether CCN(CC)CCNC(=O)c1cc2cc([125I])ccc2o1.Cl has Drug uptake at least equal to 2 % ID/g.
A. class 1

Q. I'd appreciate it if you could say whether CCN(CC)CCNC(=O)c1cn2cc([125I])ccc2n1.Cl.Cl has Drug uptake at least equal to 2 % ID/g.
A. class 1

###

- methodDescription: Biodistribution in Stomach content of C57BL/6 mouse bearing mouse B16-F0 cells at 0.74 to 0.92 MBq, iv after 3 hrs
- Assay type: ADME, organism-based
- studyConditions: in vivo
hey, just use Fulfilled if measured Drug uptake is less than 20 % ID/g, otherwise Not fulfilled

Here are 6 molecules together with their reported answers.
CCN(CC)CCNC(=O)c1cc2cc([125I])ccc2o1.Cl = Fulfilled
CCN(CC)CCNC(=O)c1cn2cc([125I])ccc2n1.Cl.Cl = Fulfilled
CCN(CC)CCNC(=O)c1cc2c([125I])cccc2cn1.Cl.Cl = Fulfilled
CCN(CC)CCNC(=O)c1ccc2cncc([125I])c2n1.Cl.Cl = Fulfilled
CCN(CC)CCNC(=O)c1c[nH]c2ccc([125I])cc2c1=O.Cl.Cl = Fulfilled
CCN(CC)CCNC(=O)c1cc2c([125I])cccc2s1.Cl = Fulfilled

Q. A record lists CCN(CC)CCNC(=O)c1cc2cc([125I])ccc2[nH]1.Cl . Is its Drug uptake below 20 % ID/g?
A. Fulfilled
